System: TNFα production in LPS-stimulated human monocytes
procedure text: Cot Monocyte TNFα Cell Based Assay
details: Homo sapiens, Monocyte, LPS-stimulated human monocytes, TNFα TR-FRET; read-out: EC50 TNF
experimental readout: log10(EC50) (log10 of the value in nM)
Quick note: numbers are log10 of EC50, with nM as the unit.

Report value only: log10(EC50), TNFα production in LPS-stimulated human monocytes, N#CCC[C@@H](Nc1c(C#N)cnc2c(C#N)cc(N[C@@H](c3ccccc3)c3cn(C4CC4)nn3)cc12)c1ccccc1
1.28

Report value only: log10(EC50), TNFα production in LPS-stimulated human monocytes, Cc1c(F)cccc1[C@H](Nc1cc(Cl)c2ncc(C#N)c(NCC(C)(C)C)c2c1)c1cn(C2(C(F)(F)F)CC2)nn1
2.79

Report value only: log10(EC50), TNFα production in LPS-stimulated human monocytes, Cc1c(C#N)cccc1[C@H](Nc1cc(Cl)c2ncc(C#N)c(NCC(C)(C)C)c2c1)c1cn(C2(C3CC3)CC2)nn1
1.76

Report value only: log10(EC50), TNFα production in LPS-stimulated human monocytes, CC(C)(C)CNc1c(C#N)cnc2c(C#N)cc(N[C@@H](c3ccc(F)cc3)c3cn(C4(c5ccccn5)CC4)nn3)cc12
2.04

Report value only: log10(EC50), TNFα production in LPS-stimulated human monocytes, CN(C)C(=O)c1cccc([C@H](Nc2cc(Cl)c3ncc(C#N)c(NCC(C)(C)C)c3c2)c2cn(C3(C(F)(F)F)CC3)nn2)c1F
2.65

Report value only: log10(EC50), TNFα production in LPS-stimulated human monocytes, Cc1c(-c2cn[nH]c2)cccc1[C@H](Nc1cc(C#N)c2ncc(C#N)c(NCC(C)(C)C)c2c1)c1cn(C2(C(F)F)CC2)nn1
1.62

----------
experimental target: human Cot catalytic domain (30-397 amino acids) (Homo sapiens, UniProt P41279)
Construct: Purified recombinant human Cot catalytic domain (30-397 amino acids) was purchased from Cama Biosciences; purchased Cama Biosciences (so in the source)
Sequence (P41279 30-397): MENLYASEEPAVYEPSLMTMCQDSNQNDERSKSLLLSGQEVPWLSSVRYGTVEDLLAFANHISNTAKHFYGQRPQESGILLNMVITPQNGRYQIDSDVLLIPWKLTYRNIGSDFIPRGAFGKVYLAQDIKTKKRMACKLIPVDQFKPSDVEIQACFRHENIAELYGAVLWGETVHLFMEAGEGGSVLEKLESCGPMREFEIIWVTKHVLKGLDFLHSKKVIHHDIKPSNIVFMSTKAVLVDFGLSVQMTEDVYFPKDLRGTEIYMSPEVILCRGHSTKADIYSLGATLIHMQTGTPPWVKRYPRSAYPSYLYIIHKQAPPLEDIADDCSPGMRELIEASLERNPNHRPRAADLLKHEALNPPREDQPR
procedure text: High Throughput Cot Biochemical Assay (KinEASE TR-FRET)
details: Cot biochemical HTRF (KinEASE TR-FRET) assay; read-out: IC50 HTRF
experimental readout: IC50 (nM)
Value expressed in nM; do not type the unit.

Return value of IC50 for input N#Cc1cnc2c(Cl)cc(N[C@@H](c3ccccc3)c3cn(Cc4ccccn4)nn3)cc2c1Nc1ccc(F)c(Cl)c1 , no commentary.
32

Return value of IC50 for input N#Cc1cnc2c(Cl)cc(N[C@@H](c3ccc(Cl)cc3)c3c[nH]nn3)cc2c1Nc1ccc(Cl)c(Cl)c1 , no commentary.
621

Return value of IC50 for input CC(C)(C)N1CCC(n2cc([C@@H](Nc3cc(Cl)c4ncc(C#N)c(Nc5ccsc5Cl)c4c3)c3ccccc3)nn2)CC1 , no commentary.
51

Return value of IC50 for input CC[C@H](C)Nc1c(C#N)cnc2c(Cl)cc(N[C@@H](c3ccccc3)c3cn(C4CCN(C(C)(C)C)CC4)nn3)cc12 , no commentary.
144

Return value of IC50 for input CC(C)(C)N1CCC(n2cc([C@@H](Nc3cc(Cl)c4ncc(C#N)c(N[C@@H]5CCCOC5)c4c3)c3ccccc3)nn2)CC1 , no commentary.
404

Return value of IC50 for input CC(C)(C)N1CCC(n2cc([C@@H](Nc3cc(Cl)c4ncc(C#N)c(Nc5ccc(Cl)c(Cl)c5F)c4c3)c3ccc(Cl)cc3)nn2)CC1 , no commentary.
78

Return value of IC50 for input CC1CCN1C(=O)c1cccc([C@H](Nc2cc(Cl)c3ncc(C#N)c(Nc4ccc(F)c(Cl)c4)c3c2)c2cn(C3CCN(C(C)(C)C)CC3)nn2)c1 (stereo partly shown) , no commentary.
1

Return value of IC50 for input CC1(CNc2c(C#N)cnc3c(Cl)cc(N[C@@H](c4ccccc4)c4cn(C5CCN(C(C)(C)C)CC5)nn4)cc23)CCC1 , no commentary.
11

Return value of IC50 for input CC(=O)Nc1cccc([C@H](Nc2cc(Cl)c3ncc(C#N)c(Nc4ccc(F)c(Cl)c4)c3c2)c2cn(C3CCN(C(C)(C)C)CC3)nn2)c1 , no commentary.
3

Return value of IC50 for input N#Cc1cnc2c(Cl)cc(N[C@@H](c3ccc(F)cc3)c3cn(C4CC4)nn3)cc2c1Nc1cnc(F)c(F)c1 , no commentary.
7

Return value of IC50 for input N#Cc1cnc2c(Cl)cc(N[C@@H](c3ccc(F)cc3)c3c[nH]nn3)cc2c1NC1CCCC(O)C1 (stereo partly shown) [Example 438] , no commentary.
135

Return value of IC50 for input CC(C)(C)N1CCC(n2cc([C@@H](Nc3cc(Cl)c4ncc(C#N)c(Nc5ccc(F)c(Cl)c5F)c4c3)c3ccc(Cl)cc3)nn2)CC1 , no commentary.
19

Return value of IC50 for input CC(C)(C)N1CCC(n2cc([C@@H](Nc3cc(Cl)c4ncc(C#N)c(N[C@@H]5CCOc6ccccc65)c4c3)c3ccccc3)nn2)CC1 , no commentary.
1690

----------
experimental target: human Cot catalytic domain (30-397 amino acids) (Homo sapiens)
Construct: Purified recombinant human Cot catalytic domain (30-397 amino acids) was purchased from Cama Biosciences; purchased Cama Biosciences (so in the source)
procedure text: High Throughput Cot Biochemical Assay (KinEASE TR-FRET)
details: Cot biochemical HTRF (KinEASE TR-FRET) assay; read-out: IC50 HTRF
Please respond with reported IC50 for every item in the list.
Value expressed in nM; do not type the unit.

Return value of IC50 for input CC(C)(C)N1CCC(n2cc([C@@H](Nc3cc(Cl)c4ncc(C#N)c(Nc5cncc(Cl)c5)c4c3)c3ccc(Cl)cc3)nn2)CC1 , no commentary.
51

Return value of IC50 for input CC[C@@H](Nc1c(C#N)cnc2c(Cl)cc(N[C@@H](c3ccc(F)cc3)c3cn(C4CCN(C(C)(C)C)CC4)nn3)cc12)c1ccccc1 , no commentary.
3

Return value of IC50 for input CC(C)(C)N1CCC(n2cc([C@@H](Nc3cc(Cl)c4ncc(C#N)c(Nc5cccc6[nH]c(=O)[nH]c56)c4c3)c3ccccc3)nn2)CC1 , no commentary.
5280

Return value of IC50 for input C[C@@H](Nc1c(C#N)cnc2c(Cl)cc(N[C@@H](c3ccccc3)c3c[nH]nn3)cc12)c1ccccc1 , no commentary.
39

Return value of IC50 for input N#Cc1cnc2c(Cl)cc(NC(c3ccc(F)cc3)c3csnn3)cc2c1Nc1ccc(F)c(Cl)c1 (stereo not shown) , no commentary.
249

Return value of IC50 for input N#Cc1cnc2c(Cl)cc(N[C@@H](c3ccccc3)c3cn(C4[C@H]5CNC[C@@H]45)nn3)cc2c1Nc1ccc(F)c(Cl)c1 (stereo partly shown) , no commentary.
2

Return value of IC50 for input CC(C)(C)C(=O)OCn1cc([C@@H](Nc2cc(Cl)c3ncc(C#N)c(Nc4ccc(F)c(Cl)c4)c3c2)c2ccccc2)nn1 , no commentary.
97

Return value of IC50 for input CC(C(F)F)n1cc([C@@H](Nc2cc(Cl)c3ncc(C#N)c(Nc4cnc(F)c(F)c4)c3c2)c2ccc(F)cc2)nn1 (stereo partly shown) , no commentary.
47

Return value of IC50 for input CCN1CC[C@@H](n2cc([C@@H](Nc3cc(Cl)c4ncc(C#N)c(Nc5ccc(F)c(Cl)c5)c4c3)c3ccccc3)nn2)[C@H](F)C1 , no commentary.
29

Return value of IC50 for input CS(=O)(=O)c1cccc([C@H](Nc2cc(Cl)c3ncc(C#N)c(Nc4ccc(Cl)c(Cl)c4F)c3c2)c2c[nH]nn2)c1 , no commentary.
17

Return value of IC50 for input C[C@@H](Nc1c(C#N)cnc2c(Cl)cc(N[C@@H](c3ccccc3)c3cn(C4CCN(C(C)(C)C)CC4)nn3)cc12)c1ccc(F)cc1 , no commentary.
30

Return value of IC50 for input CC(C)(C)CNc1c(C#N)cnc2c(Cl)cc(N[C@@H](c3ccccc3)c3cn(C4CCN(C(C)(C)C)CC4)nn3)cc12 , no commentary.
7

Return value of IC50 for input N#Cc1cnc2c(Cl)cc(N[C@H](c3c[nH]nn3)c3ccc(F)cc3F)cc2c1Nc1cnc(F)c(F)c1 , no commentary.
23

----------
Please respond with reported IC50 for every item in the list.
experimental target: human Cot catalytic domain (30-397 amino acids) (Homo sapiens)
Construct: Purified recombinant human Cot catalytic domain (30-397 amino acids) was purchased from Cama Biosciences; purchased Cama Biosciences (so in the source)
procedure text: High Throughput Cot Biochemical Assay (KinEASE TR-FRET)
details: Cot KinEASE TR-FRET, 400 μM ATP; read-out: IC50 HTRF
Value expressed in nM; do not type the unit.

Report value only: IC50, human Cot catalytic domain (30-397 amino acids) (Homo sapiens), CC(C)(C)OC(=O)N1CCC(n2cc([C@@H](Nc3cc(Cl)c4ncc(C#N)c(Nc5ccc(F)c(Cl)c5)c4c3)c3ccc(F)cc3)nn2)CC1
363

Report value only: IC50, human Cot catalytic domain (30-397 amino acids) (Homo sapiens), CC(C)(C)CNc1c(C#N)cnc2c(Cl)cc(N[C@H](c3cn(C4(C(F)(F)F)CC4)nn3)c3cccc(C(N)=O)c3F)cc12
6

Report value only: IC50, human Cot catalytic domain (30-397 amino acids) (Homo sapiens), [2H][C@](Nc1cc(Cl)c2ncc(C#N)c(NCC(C)(C)C)c2c1)(c1ccc(Cl)cc1)c1cn(C2CC2)nn1
12

Report value only: IC50, human Cot catalytic domain (30-397 amino acids) (Homo sapiens), Cc1c(-c2ccn(C)n2)cccc1[C@H](Nc1cc(Cl)c2ncc(C#N)c(NCC(C)(C)C)c2c1)c1cn(C2(C(F)(F)F)CC2)nn1
16

Report value only: IC50, human Cot catalytic domain (30-397 amino acids) (Homo sapiens), [2H][C@](Nc1cc(C#N)c2ncc(C#N)c(NC3CCCC3(C)C)c2c1)(c1ccc(F)cc1)c1cn(C2CC2)nn1 (stereo partly shown)
4

Report value only: IC50, human Cot catalytic domain (30-397 amino acids) (Homo sapiens), CC1(C)CC(n2cc(C(Nc3cc(Cl)c4ncc(C#N)c(Nc5ccc(F)c(Cl)c5)c4c3)c3ccc(F)cc3)nn2)CCN1 (stereo not shown)
24

Report value only: IC50, human Cot catalytic domain (30-397 amino acids) (Homo sapiens), Cc1c(-c2cn[nH]c2)cccc1[C@H](Nc1cc(C#N)c2ncc(C#N)c(NCC(C)(C)C)c2c1)c1cn(C2(C(F)(F)F)CC2)nn1
4

Report value only: IC50, human Cot catalytic domain (30-397 amino acids) (Homo sapiens), CCN1CC[C@H](n2cc(C(Nc3cc(Cl)c4ncc(C#N)c(Nc5ccc(F)c(Cl)c5)c4c3)c3ccc(F)cc3)nn2)C1 (stereo partly shown)
47

Report value only: IC50, human Cot catalytic domain (30-397 amino acids) (Homo sapiens), Cc1c(C#N)cccc1[C@H](Nc1cc(C#N)c2ncc(C#N)c(NCC(C)(C)C)c2c1)c1cn(C2(C3CC3)CC2)nn1
3

Report value only: IC50, human Cot catalytic domain (30-397 amino acids) (Homo sapiens), N#Cc1cnc2c(Cl)cc(N[C@@H](c3ccc(F)cc3)c3cn(C4CCN(CC(F)F)CC4)nn3)cc2c1Nc1ccc(F)c(Cl)c1
97

Report value only: IC50, human Cot catalytic domain (30-397 amino acids) (Homo sapiens), Cc1c(C#N)cccc1[C@H](Nc1cc(Cl)c2ncc(C#N)c(NCC(C)(C)C)c2c1)c1cn(C(CF)CF)nn1
8

Report value only: IC50, human Cot catalytic domain (30-397 amino acids) (Homo sapiens), CC(C)(C)CNc1c(C#N)cnc2c(C#N)cc(N[C@@H](c3cccc(C4(C#N)CC4)c3)c3cn(C45CC(C4)C5)nn3)cc12
5

Report value only: IC50, human Cot catalytic domain (30-397 amino acids) (Homo sapiens), CN1CCC(n2cc([C@@H](Nc3cc(Cl)c4ncc(C#N)c(Nc5ccc(F)c(Cl)c5)c4c3)c3ccc(F)cc3)nn2)CC1
6

// data source = patent US10316017B2
